Experiment: Pharmacokinetics after IV administration in mice
Type: in vivo
Conditions: male, ICR, mouse, IV 0.5 mg/kg, plasma, read-out: AUC24h
measuredQuantity: AUC(0-t)
Reply with the number and its unit after it.

query: # AUC(0-t) lookup, item O=C(O)c1ccccc1NC(=O)c1cccc2cccnc12 [2-QBA, 2-(quinoline-8-carboxamido)benzoic acid]
result: 412 ng·h/mL

###

Experiment: Pharmacokinetics after IV administration in mice
Type: in vivo
Conditions: male, ICR, mouse, IV 0.5 mg/kg, plasma
measuredQuantity: AUC(0-inf)
Reply with the number and its unit after it.

query: # AUC(0-inf) lookup, item O=C(O)c1ccccc1NC(=O)c1cccc2cccnc12
result: 418 ng·h/mL
